- experimental-protocol: Acute toxicity, mouse
- details: in vivo, po, 14 days from administration, C.L. 95%, read-out: DL50
readout-name: LD50 at 336 h (mg/kg)

[
  {
    "molecule": "OC[C@H](O)CN1CCN(c2ccccc2)CC1 [(+)]",
    "readout-name": "LD50 at 336 h",
    "data-value": 872
  },
  {
    "molecule": "OCC(O)CN1CCN(c2ccccc2)CC1 (racemic) [(±), reference compound]",
    "readout-name": "LD50 at 336 h",
    "data-value": 900
  },
  {
    "molecule": "OC[C@@H](O)CN1CCN(c2ccccc2)CC1 [(-), (-)-dropropizine]",
    "readout-name": "LD50 at 336 h",
    "data-value": 1290
  }
]

---

- experimental-protocol: Acute toxicity, mouse
- details: in vivo, ip, 14 days from administration, C.L. 95%, read-out: DL50
The entries below are paired with their reported LD50 at 336 h.

[
  {
    "compound": "OC[C@@H](O)CN1CCN(c2ccccc2)CC1 [(-), (-)-dropropizine]",
    "LD50 at 336 h": "408 mg/kg"
  },
  {
    "compound": "OC[C@H](O)CN1CCN(c2ccccc2)CC1 [(+)]",
    "LD50 at 336 h": "319 mg/kg"
  },
  {
    "compound": "OCC(O)CN1CCN(c2ccccc2)CC1 (racemic) [(±), reference compound]",
    "LD50 at 336 h": "340 mg/kg"
  }
]

---

- experimental-protocol: Acute toxicity, rat
- details: in vivo, po, 14 days from administration, C.L. 95%, read-out: DL50
The entries below are paired with their reported LD50 at 336 h.
readout-name: LD50 at 336 h (mg/kg)

[
  {
    "molecule": "OCC(O)CN1CCN(c2ccccc2)CC1 (racemic) [(±), reference compound]",
    "data-value": 607
  },
  {
    "molecule": "OC[C@@H](O)CN1CCN(c2ccccc2)CC1 [(-), (-)-dropropizine]",
    "data-value": 887
  },
  {
    "molecule": "OC[C@H](O)CN1CCN(c2ccccc2)CC1 [(+)]",
    "data-value": 721
  }
]

Reference source for all entries: patent US4764515A
